# methodNotes: Nephelometry kinetic solubility
# Format: physicochemical
# conditionSet: phosphate buffered saline with 2% DMSO, pH 7.5, aqueous buffer, kinetic from dmso stock, 2% DMSO: 98% phosphate buffered saline pH 7.5; highest concentration tested 200 μM; read-out: Nephelometry maximum soluble concentration
readoutLabel: solubility (µM)
Field format: number, assumed µM, no unit text.

Given COc1cc(C(=O)NN2CCCC2)ccc1Nc1ncc2c(n1)N(C1CCCC1)CC1(CC1)C(=O)N2C [Example [I-253] of WO 07/095188, reference compound] , respond with its solubility.
75

====

# methodNotes: Nephelometry kinetic solubility
# Assay type: physicochemical
# conditionSet: phosphate buffered saline with 2% DMSO, pH 7.5, aqueous buffer, kinetic from dmso stock, 2% DMSO: 98% phosphate buffered saline pH 7.5; read-out: Nephelometry soluble concentration
readoutLabel: solubility

Provide only the value of recorded solubility for COc1cc(C(=O)NN2CCN(C)CC2)ccc1Nc1ncc2c(n1)N(C1CCCC1)CC1(CC1)C(=O)N2C [Compound 254]
> 110 µg/mL
